Origin of the recorded values: ChEMBL document CHEMBL1136595

assay-remarks: Area under curve after peroral administration at 10 mg/kg in rat for 0-6 h
Format: ADME, organism-based
Design: time < 6 hr, dose 10 mg/kg, route oral
measurement-conditions: in vivo, po
readout-label: AUC at 6 h (ng·h/mL)
The reply should be a number in ng·h/mL, with the unit left off.

Input: Tell me its AUC at 6 h given CCO/N=C(/c1ccc(Br)cc1)C1CCN(C2(C)CCN(C(=O)c3c(C)nc(C(F)(F)F)nc3C)CC2)CC1 as the entry.
Output: 2000

Input: Using known records, supply AUC at 6 h for CCO/N=C(\c1ccc(Br)cc1)C1CCN(C2(C)CCN(C(=O)c3c(C)cncc3C)CC2)CC1
Output: 1300

Input: Answer with the recorded AUC at 6 h of CCO/N=C(/c1ccc(Br)cc1)C1CCN(C2(C)CCN(C(=O)c3c(C)nc(C)nc3C)CC2)CC1 only.
Output: 2700

Input: Consider the compound CCO/N=C(/c1ccc(Br)cc1)C1CCN(C2(C)CCN(C(=O)c3c(C)nc(N)nc3C)CC2)CC1 and give its recorded AUC at 6 h.
Output: 3100

Input: Using the record for Cc1ncnc(C)c1C(=O)N1CCC(C)(N2CCC(/C(=N\OCC3CC3)c3ccc(Br)cc3)CC2)CC1 , state its measured AUC at 6 h.
Output: 3700

Input: Given CO/N=C(\c1ccc(Br)cc1)C1CCN(C2(C)CCN(C(=O)c3c(C)ncnc3C)CC2)CC1 , respond with its AUC at 6 h.
Output: 4100

Input: Fill in AUC at 6 h for record Cc1ncnc(C)c1C(=O)N1CCC(C)(N2CCC(/C(=N\OC(C)C)c3ccc(Br)cc3)CC2)CC1
Output: 2400

Input: Please list AUC at 6 h recorded for the compound Cc1ncnc(C)c1C(=O)N1CCC(C)(N2CCC(/C(=N\OCC(C)C)c3ccc(Br)cc3)CC2)CC1
Output: 600

Input: Specify reported AUC at 6 h for the compound shown: CCO/N=C(\c1ccc(Br)cc1)C1CCN(C2(C)CCN(C(=O)c3c(Br)c[n+]([O-])cc3Br)CC2)CC1
Output: 4400

Input: For CCO/N=C(/c1ccc(Br)cc1)C1CCN(C2(C)CCN(C(=O)c3c(C)nc(OC)nc3C)CC2)CC1 , write its AUC at 6 h.
Output: 1800

Input: Fill in AUC at 6 h for record CCO/N=C(\c1ccc(Br)cc1)C1CCN(C2(C)CCN(C(=O)c3c(C)c[n+]([O-])cc3C)CC2)CC1
Output: 1600

Input: Please list AUC at 6 h recorded for the compound CCO/N=C(\c1ccc(Br)cc1)C1CCN(C2(C)CCN(C(=O)c3c(C)ncnc3C)CC2)CC1
Output: 3100

Input: Specify AUC at 6 h for CCO/N=C(\c1ccc(Br)cc1)C1CCN(C2(C)CCN(C(=O)c3c(Cl)cncc3Cl)CC2)CC1 and stop.
Output: 500

Input: For the compound COC[C@@H](c1ccc(C(F)(F)F)cc1)N1CCN(C2(C)CCN(C(=O)c3c(C)ncnc3C)CC2)C[C@@H]1C , report AUC at 6 h.
Output: 6500

Input: Look up AUC at 6 h of CCO/N=C(\c1ccc(Br)cc1)C1CCN(C2(C)CCN(C(=O)c3c(Cl)c[n+]([O-])cc3Cl)CC2)CC1 and report it.
Output: 3900

Input: Return AUC at 6 h for the following compound: CCO/N=C(\c1ccc(Br)cc1)C1CCN(C2(C)CCN(C(=O)c3c(Br)cncc3Br)CC2)CC1
Output: 500

Input: Read the entry Cc1ncnc(C)c1C(=O)N1CCC(C)(N2CCC(/C(=N\OCC(F)(F)F)c3ccc(Br)cc3)CC2)CC1 and write its reported AUC at 6 h.
Output: 6900

Input: Please report the measured AUC at 6 h for CCCO/N=C(/c1ccc(Br)cc1)C1CCN(C2(C)CCN(C(=O)c3c(C)ncnc3C)CC2)CC1
Output: 1600

Input: Annotate the compound CCO/N=C(/c1ccc(Br)cc1)C1CCN(C2(C)CCN(C(=O)c3c(C)nc(SC)nc3C)CC2)CC1 with its measured AUC at 6 h.
Output: 400
